All figures here come from patent US7402548B2.

Could you please report measured Effects Soybean for the items listed next?
tested on: soybean; assay: Soil treatment test for upland field; format: in vivo; set-up: key: 0 = normal development, 5 = all killed; conditions: 500 g/ha, 3 weeks, glass house 25° C.
Answers are plain numbers.

Worked cases, answers included:
CCCC(=Cc1cccc(C(F)(F)F)c1)c1nc2cc(C(F)(F)F)ccc2o1 [I-c-88] ... 5
CCCC(=Cc1cccc(C(F)(F)F)c1)c1nc2cc(C#N)c(F)cc2o1 [I-c-139] ... 5
CCC(Oc1cc(C(F)(F)F)no1)c1nc2cc(C#N)c(F)cc2o1 (stereo not shown) [Compound 1-e-28] ... 1
CCC(=Cc1cccc(C(F)(F)F)c1)c1nc2cc(Cl)c(C)cc2o1 [I-c-131] ... 1
CC(=Cc1cccc(C(F)(F)F)c1)c1nc2cc(C#N)c(F)cc2o1 [I-c-135] ... 2

List Effects Soybean for every entry below, keeping the order given.
1. CCC(=Cc1cccc(C(F)(F)F)c1)c1nc2cc(C#N)c(Cl)cc2o1 [I-c-143]
2. CCCC(Oc1cc(C)nc(SC)n1)c1nc2cc(C#N)c(F)cc2o1 (stereo not shown) [Compound 1-e-65]
3. CC/C(=C\c1cccc(C(F)(F)F)c1)c1nc2cc(Cl)ccc2o1 [I-c-55]
4. CCC(=Cc1cccc(C(F)(F)F)c1)c1nc2cc(C#N)c(F)cc2o1 [I-c-137]
5. CCC(=Cc1cccc(C(F)(F)F)c1)c1nc2cc([N+](=O)[O-])ccc2o1 [I-c-72]
6. CCCC(=Cc1cccc(C(F)(F)F)c1)c1nc2cc(C#N)c(Cl)cc2o1 [I-c-145]
7. CCC(Oc1cc(C(F)(F)F)nn1C)c1nc2cc(Cl)ccc2o1 (stereo not shown) [Compound 1-e-2]

Ans:
1: 3; 2: 0; 3: 4; 4: 3; 5: 5; 6: 0; 7: 0

Q: So what does the record say about Effects Soybean for CCC(Oc1cc(C(F)(F)F)on1)c1nc2cc(C#N)c(F)cc2o1 (stereo not shown) [I-e-40] ?
Ans: 2

====

Could you please report measured Effects Solgum for the items listed next?
test system: solgum; test: Soil treatment test for upland field; assay type: in vivo; design: key: 0 = normal development, 5 = all killed; details: 500 g/ha, 3 weeks, glass house 25° C.
Give bare numbers.

Worked cases, answers included:
Fc1ccc2oc(-c3cccc(Oc4cccc(C(F)(F)F)c4)n3)nc2c1 ... 1
Fc1ccc2nc(-c3cccc(Oc4ccc(F)c(C(F)(F)F)c4)n3)oc2c1 ... 0
CCC(=Cc1cccc(C(F)(F)F)c1)c1nc2ccc([N+](=O)[O-])cc2o1 ... 1
CCCC(=Cc1cccc(C(F)(F)F)c1)c1nc2cc([N+](=O)[O-])ccc2o1 ... 2
CCC(F)(Cc1ccc(F)c(C(F)(F)F)c1)c1nc2cc(Cl)ccc2o1 (stereo not drawn) ... 0
CCC(=Cc1cccc(C(F)(F)F)c1)c1nc2cc(C)ccc2o1 ... 3
CC(=Cc1cccc(C(F)(F)F)c1)c1nc2cc(C#N)c(Cl)cc2o1 ... 0
CCC(=Cc1cccc(C(F)(F)F)c1)c1nc2cc(F)ccc2o1 ... 5

Now let's try a different one.
Q: So what does the record say about Effects Solgum for "CCC(=Cc1cccc(C(F)(F)F)c1)c1nc2cc(Br)ccc2o1" ?
Ans: 5
